Hello, the source for this data is PubChem BioAssay (NCI), in case you need it.

Tested on: HL-60(TB) leukemia
Assay: NCI-60 one-dose screen, 48 h (100 = growth as untreated, 0 = no growth, -100 = all killed)
Conditions: 10 µM unless noted
This is part of a sample that, as a whole, favours compounds with a hit. Of some 83,000 tested, about 20% had one in any assay.
growth overview
readoutLabel: growth (%)

1) COc1ccc([C@H]2C(=O)N(c3cc(OC)c(OC)c(OC)c3)[C@@H]2c2ccc(OC)c(O)c2)cc1 | -21.2
2) COc1cc(/C=C/C(=O)c2ccc(C)cc2)ccc1Oc1nc(NCCO)nc(N2CCOCC2)n1 | -26.7
3) COc1ccc(-c2cc(C(=O)N=Nc3c(O)[nH]c4ccccc34)c3ccccc3n2)cc1OC | 106
4) COC(=O)c1c(C(=O)OC)c2n(CC(=O)Nc3cccc4cccnc34)c3ccccc3n2c1C(=O)c1ccc(C)cc1 | 99.2
5) Cn1nc(Nc2ccccc2)c(C(=O)NN)c1N | 105
